# Measurement Target: HA of ca A/New Caledonia/20/99 (H1N1) (influenza A virus)
# Assay Text: cell-based or functional assay

| Binder | Neutralization IC50, H1-Ncal99 / µg/mL |
| --- | --- |
| Antibody 6 (antibody, V domains shown) VH: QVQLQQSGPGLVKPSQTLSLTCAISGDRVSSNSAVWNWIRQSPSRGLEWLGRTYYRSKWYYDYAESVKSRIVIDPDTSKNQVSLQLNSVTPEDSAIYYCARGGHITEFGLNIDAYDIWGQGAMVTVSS VL: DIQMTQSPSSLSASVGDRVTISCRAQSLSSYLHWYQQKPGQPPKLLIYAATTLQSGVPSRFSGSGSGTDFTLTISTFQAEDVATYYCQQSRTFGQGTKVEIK | 3 |
| Antibody 5 (antibody, V domains shown) VH: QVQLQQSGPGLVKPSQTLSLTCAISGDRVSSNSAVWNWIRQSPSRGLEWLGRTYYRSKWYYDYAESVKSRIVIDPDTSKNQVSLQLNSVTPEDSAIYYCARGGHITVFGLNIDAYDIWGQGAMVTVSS VL: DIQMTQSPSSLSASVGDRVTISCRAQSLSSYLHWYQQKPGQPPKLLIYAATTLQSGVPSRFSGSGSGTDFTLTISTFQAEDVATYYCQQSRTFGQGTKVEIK | 0.85 |
| Antibody 8 (antibody, V domains shown) VH: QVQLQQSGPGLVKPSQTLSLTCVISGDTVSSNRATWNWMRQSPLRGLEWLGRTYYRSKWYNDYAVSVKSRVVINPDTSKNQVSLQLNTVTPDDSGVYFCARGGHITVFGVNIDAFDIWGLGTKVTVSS VL: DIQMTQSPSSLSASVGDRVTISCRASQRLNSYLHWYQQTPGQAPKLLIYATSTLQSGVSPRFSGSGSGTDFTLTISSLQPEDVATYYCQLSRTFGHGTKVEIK | 2.06 |
| Antibody 10 (antibody, V domains shown) VH: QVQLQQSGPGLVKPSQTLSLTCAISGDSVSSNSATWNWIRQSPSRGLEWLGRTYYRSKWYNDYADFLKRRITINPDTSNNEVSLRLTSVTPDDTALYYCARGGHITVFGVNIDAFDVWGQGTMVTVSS VL: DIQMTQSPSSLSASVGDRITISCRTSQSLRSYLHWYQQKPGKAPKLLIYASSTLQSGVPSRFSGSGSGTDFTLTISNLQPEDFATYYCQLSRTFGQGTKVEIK | 1.26 |
| Antibody 3 (antibody, V domains shown) VH: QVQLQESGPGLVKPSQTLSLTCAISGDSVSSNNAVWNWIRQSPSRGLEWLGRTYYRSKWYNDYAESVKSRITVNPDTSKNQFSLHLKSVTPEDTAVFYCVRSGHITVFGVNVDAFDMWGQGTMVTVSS VL: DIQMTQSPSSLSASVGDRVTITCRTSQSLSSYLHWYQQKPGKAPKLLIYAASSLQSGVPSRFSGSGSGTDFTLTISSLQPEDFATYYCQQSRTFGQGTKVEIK | 0.79 |
